# target-or-test-system: S1-Fc (SARS-CoV-2, UniProt P0DTC2 16-685)
# measurement-notes: phage ELISA
value-kind: ELISA fold over background (fold over background)
Quick reminder: number only, in fold over background, skip the unit.

Sample records with ELISA fold over background:
binder	ELISA fold over background [fold over background]
1-5 (antibody, V domains shown, also called variant 1-5) VH: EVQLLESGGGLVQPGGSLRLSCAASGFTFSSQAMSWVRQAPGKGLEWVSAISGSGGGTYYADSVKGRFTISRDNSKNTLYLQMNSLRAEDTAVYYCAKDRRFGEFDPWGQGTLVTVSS VL: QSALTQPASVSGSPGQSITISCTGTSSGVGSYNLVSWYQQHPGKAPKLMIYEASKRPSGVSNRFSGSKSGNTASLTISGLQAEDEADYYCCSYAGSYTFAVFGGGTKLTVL	1.2
1-31 (antibody, V domains shown, also called variant 1-31) VH: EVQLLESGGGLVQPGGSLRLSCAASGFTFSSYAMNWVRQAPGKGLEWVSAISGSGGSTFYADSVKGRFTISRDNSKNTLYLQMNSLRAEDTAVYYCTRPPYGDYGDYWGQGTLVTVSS VL: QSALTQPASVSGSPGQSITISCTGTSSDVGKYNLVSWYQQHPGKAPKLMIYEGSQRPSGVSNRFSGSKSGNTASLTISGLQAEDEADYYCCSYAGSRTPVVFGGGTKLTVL	15.7

Lookup: So what does the record say about ELISA fold over background for 1-24 (antibody, V domains shown, also called variant 1-24) VH: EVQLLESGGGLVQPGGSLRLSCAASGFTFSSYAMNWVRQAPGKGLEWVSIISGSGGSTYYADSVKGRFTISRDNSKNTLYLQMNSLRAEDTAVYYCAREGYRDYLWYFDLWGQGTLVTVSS VL: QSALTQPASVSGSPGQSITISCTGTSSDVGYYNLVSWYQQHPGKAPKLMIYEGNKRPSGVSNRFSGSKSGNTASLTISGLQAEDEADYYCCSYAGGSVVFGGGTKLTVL ?
Found: 1.1
